AUC25 for assorted molecules
- System: Mycobacterium tuberculosis Erdman (autoluminescent)
- experimentDescription: AUC25, normalised area under dose response up to IC25 (fraction (0-1)); higher = more potent at low dose
- experimentalParameters: in vitro model: dormancy (butyrate + nitrate, low O2); time point: terminal (~4-5 doublings, model-specific)
measurementType: AUC25

{"molecule": "CC[C@@H](CO)NCCN[C@@H](CC)CO [ethambutol] + NC(=O)c1cnccn1 [pyrazinamide]", "measurementType": "AUC25", "assayResult": 0.085}
{"molecule": "CC(=O)NC[C@H]1CN(c2ccc(N3CCOCC3)c(F)c2)C(=O)O1 [linezolid] + O=[N+]([O-])c1cn2c(n1)OC[C@@H](OCc1ccc(OC(F)(F)F)cc1)C2 [pretomanid]", "measurementType": "AUC25", "assayResult": 0.0385}
{"molecule": "O=[N+]([O-])c1cn2c(n1)OC[C@@H](OCc1ccc(OC(F)(F)F)cc1)C2 [pretomanid] + CO[C@H]1/C=C/O[C@@]2(C)Oc3c(C)c(O)c4c(O)c(c(/C=N/N5CCN(C6CCCC6)CC5)c(O)c4c3C2=O)NC(=O)/C(C)=C\\C=C\\[C@H](C)[C@H](O)[C@@H](C)[C@@H](O)[C@@H](C)[C@H](OC(C)=O)[C@@H]1C [rifapentine]", "measurementType": "AUC25", "assayResult": 0.0438}
{"molecule": "COc1c(N2C[C@@H]3CCCN[C@@H]3C2)c(F)cc2c(=O)c(C(=O)O)cn(C3CC3)c12 [moxifloxacin] + CO[C@H]1/C=C/O[C@@]2(C)Oc3c(C)c(O)c4c(O)c(c(/C=N/N5CCN(C)CC5)c(O)c4c3C2=O)NC(=O)/C(C)=C\\C=C\\[C@H](C)[C@H](O)[C@@H](C)[C@@H](O)[C@@H](C)[C@H](OC(C)=O)[C@@H]1C [rifampicin]", "measurementType": "AUC25", "assayResult": 0.059}

Hello, the source for this data is the supplement of paper PMC8617591, in case you need it.
